Quick list: protein stability index per entry.
experiment: protein stability index of a GFP-peptide fusion (yeast GPS) (PSI 1-4); higher = more stable; sorted into four equal gates, so the index is relative within each strain; details: pdr5∆
MEASUREMENT_KIND: protein stability index

INSERT INTO measurements (seq_text, measurement_kind, result) VALUES
  ('LVDDENEPSQSLISTRN [BRN1]', 'protein stability index', 3.4),
  ('LRRVEERFTKSKTLSLI [FAS1]', 'protein stability index', 2.09),
  ('LFGSSNNNNNNNNSNNI [YGL172W/NUP49]', 'protein stability index', 2.33),
  ('FLFAPELGAINLHALSM [SWI1]', 'protein stability index', 2.05),
  ('TIELAGGGYFSAAGMTA [FAS1]', 'protein stability index', 3.19),
  ('AKVNRPAKIVNFEKPKN [RPN5]', 'protein stability index', 3.12),
  ('LIVRAKNHTHNLPGNIT [RRP4]', 'protein stability index', 2.96),
  ('TSTDGKKRSKARKETYS [HTB1]', 'protein stability index', 3.11),
  ('TVEALDFREKALYIAMM [RET1]', 'protein stability index', 3.03),
  ('KSPPQFFYNISSIHWNN [SIN4]', 'protein stability index', 1.89),
  ('KMIEKIEKMSTIVQLCK [YIL149C/MLP2]', 'protein stability index', 2.37),
  ('PVSPLDIYSDEASAQKK [RPS2]', 'protein stability index', 2.93),
  ('LPKYKEKKAASAKQTAP [MED7]', 'protein stability index', 2.97),
  ('TLQDFHLIFSNARIYNT [SNF2]', 'protein stability index', 2.17);
